# Test system: A498 complex spheroids with HUVEC/MSC, growth
# experiment summary: Anticancer human tumor A498 cell line growth inhibition [AhR];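 further: seven day exposure starting three days after spheroid seeding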
# measurement conditions: second compound 0.1 µM; first compound 0.0949 µM; stronger effect = lower value
Assign labels as follows, please: rule met for viability, T/C below 90%; rule not met for viability, T/C equal to or exceeding 90%.

molecule | category
CCN(c1cc(-c2ccc(CN3CCOCC3)cc2)cc(C(=O)NCc2c(C)cc(C)[nH]c2=O)c1C)C1CCOCC1 + Cc1ccccc1N=Nc1ccc(NC(=O)c2ccnn2C)c(C)c1 | rule not met
Nc1ncn(C2CC(O)C(CO)S2)c(=O)n1 (stereo unspecified) + Cc1cncc(-c2nc(NCCc3c[nH]c4ccccc34)c3ncn(C(C)C)c3n2)c1 | rule met
CCc1c2c(nc3ccc(O)cc13)-c1cc3c(c(=O)n1C2)COC(=O)[C@]3(O)CC + CC(CO)NC(=O)c1cc(-c2ccc(Cl)cc2)nn(-c2cnn(C)c2)c1=O | rule met
CCc1c2c(nc3ccc(O)cc13)-c1cc3c(c(=O)n1C2)COC(=O)[C@]3(O)CC + Cc1cncc(-c2nc(NCCc3c[nH]c4ccccc34)c3ncn(C(C)C)c3n2)c1 | rule met

====

# Tested on: A498 complex spheroids with HUVEC/MSC, growth
# experiment summary: Anticancer human tumor A498 cell line growth inhibition [AhR];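 further: seven day exposure starting three days after spheroid seeding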
# measurement conditions: curve of compound
# IC50 per record follows

compound | IC50
CC(C)c1c(-c2ccccc2)nc2c(C#N)c[nH]n2c1=O | > 10000 nM
CC[C@@]1(O)C(=O)OCc2c1cc1n(c2=O)Cc2cc3c(CN(C)C)c(O)ccc3nc2-1 | > 100 nM
Nc1ncn(C2CC(O)C(CO)O2)c(=O)n1 (stereo not drawn) | > 1000 nM
Cn1ncnc1C1c2n[nH]c(=O)c3cc(F)cc(c23)NC1c1ccc(F)cc1 (stereo not drawn) | > 100 nM
Nc1ccn(C2OC(CO)C(O)C2(F)F)c(=O)n1 (stereo not drawn) | < 31.6 nM
CCN(c1cc(-c2ccc(CN3CCOCC3)cc2)cc(C(=O)NCc2c(C)cc(C)[nH]c2=O)c1C)C1CCOCC1 | > 3000 nM
Nc1ncn(C2CC(O)C(CO)S2)c(=O)n1 (stereo not drawn) | > 300 nM
O=C(c1cc(Cc2n[nH]c(=O)c3ccccc23)ccc1F)N1CCN(C(=O)C2CC2)CC1 | > 10000 nM

====

# System: A498 complex spheroids with HUVEC/MSC, growth
# experiment summary: Anticancer human tumor A498 cell line growth inhibition [AhR];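 further: seven day exposure starting three days after spheroid seeding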;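 on viability, T/C: luminescence signal used as a surrogate for viable cells; luminescence viability scaled so 100% equals DMSO vehicle wells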
# measurement conditions: second compound 0.1 µM; first compound 0.949 µM; stronger effect = lower value
observed property: viability, T/C

molecule | observed property | result
CCN(c1cc(-c2ccc(CN3CCOCC3)cc2)cc(C(=O)NCc2c(C)cc(C)[nH]c2=O)c1C)C1CCOCC1 + Cc1cncc(-c2nc(NCCc3c[nH]c4ccccc34)c3ncn(C(C)C)c3n2)c1 | viability, T/C | 97.7%
O=C(C=Cn1cnc(-c2cc(C(F)(F)F)cc(C(F)(F)F)c2)n1)NNc1cnccn1 + Cc1ccccc1N=Nc1ccc(NC(=O)c2ccnn2C)c(C)c1 | viability, T/C | 19.8%
CCN(c1cc(-c2ccc(CN3CCOCC3)cc2)cc(C(=O)NCc2c(C)cc(C)[nH]c2=O)c1C)C1CCOCC1 + CC(CO)NC(=O)c1cc(-c2ccc(Cl)cc2)nn(-c2cnn(C)c2)c1=O | viability, T/C | 102%
CCN(c1cc(-c2ccc(CN3CCOCC3)cc2)cc(C(=O)NCc2c(C)cc(C)[nH]c2=O)c1C)C1CCOCC1 + Cc1ccccc1N=Nc1ccc(NC(=O)c2ccnn2C)c(C)c1 | viability, T/C | 93.1%
O=C(C=Cn1cnc(-c2cc(C(F)(F)F)cc(C(F)(F)F)c2)n1)NNc1cnccn1 + Cc1cncc(-c2nc(NCCc3c[nH]c4ccccc34)c3ncn(C(C)C)c3n2)c1 | viability, T/C | 25.3%
O=C(C=Cn1cnc(-c2cc(C(F)(F)F)cc(C(F)(F)F)c2)n1)NNc1cnccn1 + CC(CO)NC(=O)c1cc(-c2ccc(Cl)cc2)nn(-c2cnn(C)c2)c1=O | viability, T/C | 22.3%

====

# System: A498 complex spheroids with HUVEC/MSC, growth
# experiment summary: Anticancer human tumor A498 cell line growth inhibition [AhR];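 further: seven day exposure starting three days after spheroid seeding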;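 on viability, T/C: luminescence signal used as a surrogate for viable cells; luminescence viability scaled so 100% equals DMSO vehicle wells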
# measurement conditions: second compound 0.316 µM; first compound 10 µM; stronger effect = lower value
# viability, T/C per record follows

compound | viability, T/C / %
COc1ccc([C@@H](O)c2cc(-c3ncnc4cc(N5CCOCC5)ccc34)c(F)cc2Cl)nn1 + Cc1cncc(-c2nc(NCCc3c[nH]c4ccccc34)c3ncn(C(C)C)c3n2)c1 | 11.8
CC1(C)CCC(CN2CCN(c3ccc(C(=O)NS(=O)(=O)c4ccc(NCC5CCOCC5)c([N+](=O)[O-])c4)c(Oc4cnc5[nH]ccc5c4)c3)CC2)=C(c2ccc(Cl)cc2)C1 + Cc1ccccc1N=Nc1ccc(NC(=O)c2ccnn2C)c(C)c1 | 52.3
COc1cc(Nc2ncc3c(n2)-c2ccc(Cl)cc2C(c2c(F)cccc2OC)=NC3)ccc1C(=O)O + Cc1ccccc1N=Nc1ccc(NC(=O)c2ccnn2C)c(C)c1 | 34.2
COc1cccc2c1C(=O)c1c(O)c3c(c(O)c1C2=O)CC(O)(C(=O)CO)CC3OC1CC(N)C(O)C(C)O1 (stereo unspecified) + Cc1ccccc1N=Nc1ccc(NC(=O)c2ccnn2C)c(C)c1 | 1.35
CC1COCCN1c1cc(C2(S(C)(=N)=O)CC2)nc(-c2ccnc3[nH]ccc23)n1 (stereo unspecified) + CC(CO)NC(=O)c1cc(-c2ccc(Cl)cc2)nn(-c2cnn(C)c2)c1=O | 19.7
CC1COCCN1c1cc(C2(S(C)(=N)=O)CC2)nc(-c2ccnc3[nH]ccc23)n1 (stereo unspecified) + Cc1cncc(-c2nc(NCCc3c[nH]c4ccccc34)c3ncn(C(C)C)c3n2)c1 | 27.5
CC1(C)CCC(CN2CCN(c3ccc(C(=O)NS(=O)(=O)c4ccc(NCC5CCOCC5)c([N+](=O)[O-])c4)c(Oc4cnc5[nH]ccc5c4)c3)CC2)=C(c2ccc(Cl)cc2)C1 + CC(CO)NC(=O)c1cc(-c2ccc(Cl)cc2)nn(-c2cnn(C)c2)c1=O | 21.6
NS(=O)(=O)OCC1CC(n2ccc3c(NC4CCc5ccccc54)ncnc32)CC1O (stereo unspecified) + Cc1cncc(-c2nc(NCCc3c[nH]c4ccccc34)c3ncn(C(C)C)c3n2)c1 | 19.2
COc1ccc([C@@H](O)c2cc(-c3ncnc4cc(N5CCOCC5)ccc34)c(F)cc2Cl)nn1 + CC(CO)NC(=O)c1cc(-c2ccc(Cl)cc2)nn(-c2cnn(C)c2)c1=O | 8.99
Nc1ccccc1NC(=O)c1ccc(CNC(=O)OCc2cccnc2)cc1 + CC(CO)NC(=O)c1cc(-c2ccc(Cl)cc2)nn(-c2cnn(C)c2)c1=O | 2.07
CC1(C)CCC(CN2CCN(c3ccc(C(=O)NS(=O)(=O)c4ccc(NCC5CCOCC5)c([N+](=O)[O-])c4)c(Oc4cnc5[nH]ccc5c4)c3)CC2)=C(c2ccc(Cl)cc2)C1 + Cc1cncc(-c2nc(NCCc3c[nH]c4ccccc34)c3ncn(C(C)C)c3n2)c1 | 26.6

====

# viability, T/C per record follows
# Tested on: A498 complex spheroids with HUVEC/MSC, growth
# experiment summary: Anticancer human tumor A498 cell line growth inhibition [AhR];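 further: seven day exposure starting three days after spheroid seeding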;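 on viability, T/C: luminescence signal used as a surrogate for viable cells; luminescence viability scaled so 100% equals DMSO vehicle wells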
# measurement conditions: second compound 0.316 µM; first compound 10 µM; stronger effect = lower value
observed property: viability, T/C (%)

compound | numeric value
O=C(c1cc(Cc2n[nH]c(=O)c3ccccc23)ccc1F)N1CCN(C(=O)C2CC2)CC1 + CC(CO)NC(=O)c1cc(-c2ccc(Cl)cc2)nn(-c2cnn(C)c2)c1=O | 81.7
COc1cc(C2c3cc4c(cc3C(OC3OC5COC(C)OC5C(O)C3O)C3COC(=O)C23)OCO4)cc(OC)c1O (stereo unspecified) + Cc1ccccc1N=Nc1ccc(NC(=O)c2ccnn2C)c(C)c1 | 53.2
Nc1ccn(C2OC(CO)C(O)C2(F)F)c(=O)n1 (stereo unspecified) + CC(CO)NC(=O)c1cc(-c2ccc(Cl)cc2)nn(-c2cnn(C)c2)c1=O | 28.3
Nc1ccn(C2OC(CO)C(O)C2(F)F)c(=O)n1 (stereo unspecified) + Cc1cncc(-c2nc(NCCc3c[nH]c4ccccc34)c3ncn(C(C)C)c3n2)c1 | 39.9
CC(C)c1c(-c2ccccc2)nc2c(C#N)c[nH]n2c1=O + Cc1ccccc1N=Nc1ccc(NC(=O)c2ccnn2C)c(C)c1 | 89.5
COc1cc(Nc2ncc3c(n2)-c2ccc(Cl)cc2C(c2c(F)cccc2OC)=NC3)ccc1C(=O)O + CC(CO)NC(=O)c1cc(-c2ccc(Cl)cc2)nn(-c2cnn(C)c2)c1=O | 32.3

====

# viability, T/C per record follows
# Tested on: A498 complex spheroids with HUVEC/MSC, growth
# experiment summary: Anticancer human tumor A498 cell line growth inhibition [AhR];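 further: seven day exposure starting three days after spheroid seeding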;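 on viability, T/C: luminescence signal used as a surrogate for viable cells; luminescence viability scaled so 100% equals DMSO vehicle wells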
# measurement conditions: second compound 0.316 µM; first compound 0.949 µM; stronger effect = lower value
# Source text: Multicellular complex tumor spheroid response to aryl hydrocarbon receptor antagonists in combination with a variety of drugs and investigational agents in selected tumor cell lines […] Compounds. […] If the clinical Cmax for an agent had not been determined, the highest concentration tested was 10 microM (Table 1). […]

molecule | assayed system | viability, T/C
O=C(C=Cn1cnc(-c2cc(C(F)(F)F)cc(C(F)(F)F)c2)n1)NNc1cnccn1 + Cc1ccccc1N=Nc1ccc(NC(=O)c2ccnn2C)c(C)c1 | A498 complex spheroids with HUVEC/MSC, growth | 19.1%
CCN(c1cc(-c2ccc(CN3CCOCC3)cc2)cc(C(=O)NCc2c(C)cc(C)[nH]c2=O)c1C)C1CCOCC1 + CC(CO)NC(=O)c1cc(-c2ccc(Cl)cc2)nn(-c2cnn(C)c2)c1=O | A498 complex spheroids with HUVEC/MSC, growth | 96.1%
O=C(C=Cn1cnc(-c2cc(C(F)(F)F)cc(C(F)(F)F)c2)n1)NNc1cnccn1 + CC(CO)NC(=O)c1cc(-c2ccc(Cl)cc2)nn(-c2cnn(C)c2)c1=O | A498 complex spheroids with HUVEC/MSC, growth | 17.9%
O=C(C=Cn1cnc(-c2cc(C(F)(F)F)cc(C(F)(F)F)c2)n1)NNc1cnccn1 + Cc1cncc(-c2nc(NCCc3c[nH]c4ccccc34)c3ncn(C(C)C)c3n2)c1 | A498 complex spheroids with HUVEC/MSC, growth | 30.8%
CCN(c1cc(-c2ccc(CN3CCOCC3)cc2)cc(C(=O)NCc2c(C)cc(C)[nH]c2=O)c1C)C1CCOCC1 + Cc1ccccc1N=Nc1ccc(NC(=O)c2ccnn2C)c(C)c1 | A498 complex spheroids with HUVEC/MSC, growth | 96.4%
CCN(c1cc(-c2ccc(CN3CCOCC3)cc2)cc(C(=O)NCc2c(C)cc(C)[nH]c2=O)c1C)C1CCOCC1 + Cc1cncc(-c2nc(NCCc3c[nH]c4ccccc34)c3ncn(C(C)C)c3n2)c1 | A498 complex spheroids with HUVEC/MSC, growth | 97.4%
